Reference source for all entries: PubChem BioAssay (NCI)

- Test system: SK-MEL-5 melanoma
- EXPERIMENT NOTES: NCI-60 one-dose screen, 48 h
- TEST CONDITIONS: 10 µM unless noted
About 83,000 compounds went through this panel and 20% of them were active in at least one assay; those are over-represented in the sample as a whole. The source made the active and inactive calls. How the source made its calls: active means growth percent below 10; inactive means the rest.
Possible outcomes: active, inactive

>  <COMPOUND>
CC1=C(SCCC(=O)OC(C[Se]C2=C(C)C(=O)c3ccccc3C2=O)C(=O)NCCCCCC(=O)OCc2ccccc2)C(=O)c2ccccc2C1=O (centres undefined)

>  <ASSAYED SYSTEM>
SK-MEL-5 melanoma

>  <CATEGORY>
active

$$$$
>  <COMPOUND>
O=c1cc(-c2ccc(Cl)cc2)[nH]c2ccccc12

>  <ASSAYED SYSTEM>
SK-MEL-5 melanoma

>  <CATEGORY>
inactive

$$$$
>  <COMPOUND>
CCN1C(=O)N(CC)C2Nn3c(s/c(=C\c4cccc([N+](=O)[O-])c4)c3=O)=NC21 (centres undefined)

>  <ASSAYED SYSTEM>
SK-MEL-5 melanoma

>  <CATEGORY>
inactive

$$$$
>  <COMPOUND>
CCN(CC)c1ccc2nc3c4ccccc4c(=NC(=O)c4ccccc4-c4c5ccc(N(CC)CC)cc5[o+]c5cc(N(CC)CC)ccc45)cc-3oc2c1

>  <ASSAYED SYSTEM>
SK-MEL-5 melanoma

>  <CATEGORY>
active

$$$$
>  <COMPOUND>
COc1ccc(-c2[nH]c(=S)n(C(CC3(C)NCC(=O)N3n3c(-c4ccccc4)cc(C)nc3=S)c3ccc(OC)cc3)c(=O)c2Br)cc1 (centres undefined)

>  <ASSAYED SYSTEM>
SK-MEL-5 melanoma

>  <CATEGORY>
inactive

$$$$
>  <COMPOUND>
Cc1ccccc1NC(=O)N/C(N)=N/c1nc(-c2cccc([N+](=O)[O-])c2)cs1

>  <ASSAYED SYSTEM>
SK-MEL-5 melanoma

>  <CATEGORY>
inactive

$$$$
>  <COMPOUND>
CCOc1ccccc1-c1cc(-c2cccs2)c(C#N)c(=O)[nH]1

>  <ASSAYED SYSTEM>
SK-MEL-5 melanoma

>  <CATEGORY>
inactive

$$$$
>  <COMPOUND>
CCCCCc1nc2c(c3c1CCCC3)CCCC2

>  <ASSAYED SYSTEM>
SK-MEL-5 melanoma

>  <CATEGORY>
inactive

$$$$
>  <COMPOUND>
O=C1NC(=Nc2ccc(Cl)cc2)S/C1=C\c1cn(-c2ccccc2)nc1-c1ccccc1

>  <ASSAYED SYSTEM>
SK-MEL-5 melanoma

>  <CATEGORY>
inactive

$$$$

====

Each entry below carries its reported growth.
- Tested on: EKVX NSCLC
- EXPERIMENT NOTES: NCI-60 one-dose screen, 48 h (100 = growth as untreated, 0 = no growth, -100 = all killed)
- TEST CONDITIONS: 10 µM unless noted
Compounds without any hit were thinned out: in the full panel of roughly 83,000, 20% have a hit.

>  <MOLECULE>
O=C(CC(SCc1ccccc1)c1ccccc1)c1ccccc1 (centres undefined)

>  <growth, %>
82.4

$$$$
>  <MOLECULE>
C[C@H](NC(=O)[C@@H]1CSSC[C@@H](NC(=O)c2nc3ccccc3cc2O)C(=O)NCC(=O)N1C)c1ccccc1

>  <growth, %>
42

$$$$
>  <MOLECULE>
CC(=O)OC1CCC2(C)C(=CC3C4CCC(=O)C4(C)CCC32)C1 (centres undefined)

>  <growth, %>
109

$$$$
>  <MOLECULE>
c1ccc(-c2nc([P+](c3ccccc3)(c3ccccc3)c3ccccc3)c(N3CCOCC3)o2)cc1

>  <growth, %>
14.9

$$$$
>  <MOLECULE>
COc1ccc(-c2nc(SCCC(C)C)nc(N/N=C\c3cccc([N+](=O)[O-])c3)c2C#N)cc1

>  <growth, %>
40.9

$$$$
>  <MOLECULE>
CNS(=O)(=O)c1n[nH]nc1-c1cc(C(C)(C)C)c(O)c(C(C)(C)C)c1

>  <growth, %>
89.8

$$$$
>  <MOLECULE>
CN(C)c1ccc(-c2ccc3[nH]c(=O)nc(-c4ccccc4)c3c2)cn1

>  <growth, %>
58.5

$$$$
>  <MOLECULE>
COc1cc(/C=N/NC(=O)Cn2c(C(C)C)nc3ccccc32)ccc1O

>  <growth, %>
103

$$$$
>  <MOLECULE>
COc1ccc(C2C(c3nn[nH]n3)=C(N)Oc3c2ccc2ccccc32)cc1 (centres undefined)

>  <growth, %>
83.4

$$$$
>  <MOLECULE>
CCN(CC)CCN1CC(O)=C(c2nc(-c3ccc(Cl)cc3)cs2)C1=N

>  <growth, %>
82.8

$$$$
>  <MOLECULE>
Cc1nc2ccccc2c(/C=C/c2ccc(Cl)cc2)c1C(=O)/C=C/c1ccc(F)cc1

>  <growth, %>
29.9

$$$$
>  <MOLECULE>
COc1ccc2oc3c(C)c4c(c(C)c3c2c1)C(=O)N(Cc1ccccc1)C4=O

>  <growth, %>
92.9

$$$$
>  <MOLECULE>
C=C1C(=O)O[C@H]2[C@H]1CC/C(COC(=O)C(=O)c1c[nH]c3ccccc13)=C\CC[C@@]1(C)O[C@@H]21

>  <growth, %>
48.2

$$$$
>  <MOLECULE>
COc1cc(C2CC(c3ccc(Nc4ccnc5cc(Cl)ccc45)cc3)=NN2C=O)cc(OC)c1OC (centres undefined)

>  <growth, %>
76.7

$$$$
>  <MOLECULE>
N=C1CCC(=N)c2c1c(O)c1ccccc1c2O

>  <growth, %>
82.1

$$$$
>  <MOLECULE>
Cn1ccc2c(c1=O)C(=O)c1nccc3c1c-2nc1ccccc13

>  <growth, %>
86.9

$$$$
>  <MOLECULE>
COc1cc(/C=C/C(=O)c2c(C)nc3ccccc3c2C)ccc1OCCCN1CCN(C(=O)c2ccco2)CC1

>  <growth, %>
81.7

$$$$
>  <MOLECULE>
COc1cc(C2NC(=O)c3ccccc3N2)ccc1OCCCCCOc1c(OC)cc(C2=NOC(c3cc(OC)c(OC)c(OC)c3)C2)cc1OC (centres undefined)

>  <growth, %>
50.6

$$$$
>  <MOLECULE>
CC(=O)[C@@H]1CC[C@]2(COS(=O)(=O)c3ccc(C)cc3)CC[C@]3(C)[C@H](CC[C@@H]4[C@@]5(C)CCCNC(C)(C)[C@@H]5CC[C@]43C)[C@@H]12

>  <growth, %>
94

$$$$
